Sourced from patent US20190284262A1

Target: T1, 017-mut2 peptide (…)/HLA-A*02:01 complex on T2 cells (human)
T1 construct: Alanine mutant at position 2, the anchor position; the peptide may load poorly onto HLA-A2; also called EXT017-mut2
Assay: flow cytometry, phage on peptide-loaded T2 cells
Readout name: MFI
# answer = number (no unit)

| Binder | MFI |
| --- | --- |
| EXT017-54 scFv phage clone (scFv, full-length scFv with His+HA tags; also called EXT017-54 phage) scFv: QAVLTQPPSLSGGPRQRVTISCSGSTSNIGKNGVSWYQQLPGKAPKLLIYNDHLLSSGVSDRFSGSKSGTSASLAISGLQSDDEADYYCATWDDTLDLPLFGGGTKVTVLGSRGGGGSGGGGSGGGGSLEMAQMQLVQSGAEVEKPGASVKLSCKASGGTFSSYAISWVRQAPGQGLEWMGGIIPIFGTANYAQKFQGRVTITADESTSTAYMELSSLRSEDTAVYYCARPSYYSIKSAWDHWGQGTLVTVSSTSGQAGQHHHHHHGAYPYDVPDYAS | 94.7 |

Consider the binder EXT017-27 scFv phage clone (scFv, full-length scFv with His+HA tags; also called EXT017-27 phage; phage clone #27) scFv: QAVLTQPPSVSVAPGKTARLTCGGNNIGSESVHWYQQKPGQAPLLVVYDDDDRPSGIPERFSGSNSGNTATLTISRVEAGDEADYYCQVWDRSSDHWFFGGGTKLTVLGSRGGGGSGGGGSGGGGSLEMAQVQLVQSGAEVKKPGASVKVSCKASGYTFTNYYIHWVRQAPGQGLEWMGIIRPSGGITNYAQKFQGRVSMTRDTSTSTVYMELSSLRSEDTAVYYCARSWDYFASNDFWGQGTLVTVSSTSGQAGQHHHHHHGAYPYDVPDYAS and give its recorded MFI.
98.2
